Tested on: SK-MEL-5 melanoma
assay-protocol: NCI-60 one-dose screen, 48 h
measurement-setup: 10 µM unless noted
This is part of a sample that, as a whole, favours compounds with a hit. Of some 83,000 tested, about 20% had one in any assay. Activity calls are given as the source filed them. How the source made its calls: active means growth percent below 10; inactive means the rest.
Labels: 1 (active), 0 (inactive)

| molecule | assigned-category |
| --- | --- |
| CC[C@]12C=CCN3CC[C@]4(C(=C(C(=O)OC)C1)Nc1cc(OC)c([C@@H]5[C@H]6O[C@H]6[C@@]6(CC)CC(C(=O)OC)=C7Nc8cc(O)ccc8[C@@]78CCN5[C@@H]68)cc14)[C@@H]32 | 1 |
| Cc1ccc(C(=O)Nc2cc(-c3ccncc3)cc(C(F)(F)F)c2)cc1C#Cc1cnc2cccnn12 | 0 |
| CC1CCc2c(sc3nc(SCC(=O)c4cccc(Br)c4)n(-c4ccccc4)c(=O)c23)C1 (centres undefined) | 0 |
| O=C1N/C(=N\c2nccs2)S/C1=C\c1ccc([N+](=O)[O-])cc1 | 1 |
| O=C(NN1C(=O)/C(=C/C=C/c2ccc([N+](=O)[O-])o2)SC1=S)c1ccc(O)cc1 | 1 |
| N#C/C(=C1/C(=O)Nc2ccccc21)c1nnc(NC(=O)c2ccc(-n3c(=O)[nH]c4ccccc4c3=O)cc2)s1 | 0 |
| Oc1ccc(Cl)c(Nc2ncnc3c2cnn3CC(Cl)c2ccc(Br)cc2)c1 (centres undefined) | 0 |
| FC(F)(F)c1cc2c(Cl)ncnc2n1CCN1CCCCC1 | 0 |
| CCCCCCCOc1ccc(S(=O)(=O)Nc2ccc(C)c(F)c2C(=O)O)cc1 | 0 |
| CCCn1c(NC(=O)c2cccc(C(N)=O)c2)nc2ccc(CN3CCCCC3)cc21 | 0 |
| CC1=NN(C2=NC(=O)C(CC(=O)Nc3ccccc3C(F)(F)F)S2)C(c2ccc(N(C)C)cc2)C1 (centres undefined) | 0 |
| c1n[nH]cc1-c1nc2ccc3[nH]ncc3c2c2c1CC1(CC2)COC1 | 0 |
| COc1cccc(/C=C/c2nc3ccccc3c(=O)n2CC(=O)Nc2ccccc2)c1 | 0 |
| Cc1cn(-c2cc(NC(=O)c3ccc(C)c(-n4cc(-c5cnc6cccnn56)nn4)c3)cc(C(F)(F)F)c2)cn1 | 0 |
| NC(=O)c1ccc(-c2ccc3ncnc(N4CCc5cc(F)c(Cl)cc54)c3c2)cn1 | 0 |
| CNS(=O)(=O)N1CCc2c(Br)c3c(c(OC)c2C1CCc1ccccc1)OCO3 (centres undefined) | 1 |
| Cc1ccc(NC(=O)N/N=C/c2c[nH]c3ccccc23)c(C)c1 | 1 |
| Cc1ccc(Cl)cc1NC(=O)Nc1nc2ccc([N+](=O)[O-])cc2s1 | 1 |
| O=C(NNC(=S)NCCc1ccccc1)c1ccc(OCc2nc3ccc(Cl)cc3[nH]2)cc1 | 0 |
| O=C1Nc2cc(-c3ccc(NS(=O)(=O)c4ccc([N+](=O)[O-])cc4)cc3)ccc2/C1=C/c1ccc[nH]1 | 0 |
| C/C(=N/O)c1ccc(NC(=O)CSc2nnc(-c3ccc4nc(-c5ccc(Cl)cc5)[nH]c4c3)o2)cc1 | 0 |
| CCN1CCN(Cc2ccc(C(=O)Nc3cccc(Nc4ccc5c(OC)cccc5n4)c3)cc2C(F)(F)F)CC1 | 1 |
| O=C(NN1C(=O)/C(=C/C=C/c2ccc([N+](=O)[O-])o2)SC1=S)c1ccncc1 | 1 |
| O=C1/C(=C/C=C/c2ccco2)SC(=S)N1CC(=S)C1C=CS(=O)(=O)C1 (centres undefined) | 0 |
| NS(=O)(=O)c1cccc(Nc2nc(SCC(=O)c3ccc(F)cc3)nc3ccccc23)c1 | 1 |
| Cc1ccc(C2CC(c3ccc(NC(=S)Nc4ccccc4)cc3)=NN2c2ccc(S(N)(=O)=O)cc2)cc1 (centres undefined) | 0 |
| Cc1ccc2nc(SCc3ccccc3F)n(-c3ccccc3)c(=O)c2c1 | 0 |
| CN(C)c1nc(NCCNS(=O)(=O)c2ccc(C3=Nc4c(N)nc(N)nc4NC(c4ccc(C(F)(F)F)cc4)C3)cc2)nc(N2CCOCC2)n1 (centres undefined) | 0 |
| COc1ccc(OC)c(Cn2cc(C#N)c(N)c2C(=O)c2ccc(Br)cc2)c1 | 0 |

Sourced from PubChem BioAssay (NCI)
